- SYSTEM TESTED: human FGFR1c (human), P11362
- ASSAY PROTOCOL: cell-based or functional assay
QUANTITY KIND: EC50 of intracellular calcium release in CHO-R1c cells (pM)
State just the number; it will be interpreted in pM.

// sample C4-71C_mb7 (designed binder) MGPEEILERARESLERAREASERGDEEEFRKAAEKALELAKRLVEQAKKEGDPWMVMWAALVALWVALLALRNGDKEVFKKAAESALEVAKRLVEVASKEGDPEMVLLAAWVALFVAWLAWLFGDKEVFKKAAESALEVAKRLVEVASKEGDPELVEEAAKVAEEVEKLAEKQGDEEVREKAWETWMEVWLLWLEVRLRKGGGGSDRRKEMDKVYRTAYKRITSTPDKEKRKEVVKEATEQLRRIAKDEEEKKKAAYMISFLKTLGSLEHHHHHH , its EC50 of intracellular calcium release in CHO-R1c cells was 720
